Test system: C33A
Assay: Primary qHTS to identify gynecologic anti-cancer compounds using libraries of approved drugs and bioactive compounds (AID 1345084); note: % is set by controls: 0 for no effect and ±100 for the full control effect; nearly all actives have a fitted effect of over 55% in size
Conditions: Gynecologic cancer cell panel viability, ATPlite luminescence, 48 h; series mostly up to 57.5 µM
Results filed as inconclusive are left out. Active and inactive are the calls of the source. Calls come from the whole dose curve; as a rule, active = well fitted cell-killing curve with a large enough effect; inconclusive = small, poorly fitted or top-dose-only effect, or effect the other way; inactive = flat fitted curve, though single readings scatter.
Readout Name: activity change, negative = cytotoxicity

Molecule	activity change, negative = cytotoxicity
CC(=O)O[C@@H](C[C@@H]1C=C(C)C(=O)O1)[C@H](C)[C@H]1CCC2[C@@]3(C)CC[C@H](O[C@@H]4O[C@H](CO)[C@@H](O)[C@H](O)[C@H]4O[C@@H]4O[C@@H](C)[C@H](O)[C@@H](O)[C@H]4O)C(C)(C)C3CC[C@@]2(C)[C@@]12COC(=O)C2 (stereo partly specified)	13.5% [at 11.6 µM] (inactive)
CC(=O)OCC1=CCC2C(C)(C)CCCC2(C)C12CCC(C)(CC(=O)O)O2 (stereo unspecified)	inactive
COC(=O)c1ccc(OC)cc1O[C@@H]1O[C@H](CO[C@@H]2OC[C@@H](O)[C@H](O)[C@H]2O)[C@@H](O)[C@H](O)[C@H]1O	inactive
CC1=C2C3OC(=O)C(C)C3(O)CCC2(C)CCC1 (stereo unspecified)	inactive
C=C(C)C(O)COc1ccc(CC(=O)O)cc1 (stereo unspecified)	inactive

Please turn your attention to the following entry.
Find activity change, negative = cytotoxicity for CC(/C=C/C=C(\C)C(=O)O[C@@H]1O[C@H](CO[C@@H]2O[C@H](CO)[C@@H](O)[C@H](O)[C@H]2O)[C@@H](O)[C@H](O)[C@H]1O)=C\C=C\C=C(C)\C=C\C=C(/C)C(=O)O[C@@H]1C[C@](O)(C(=O)O)C[C@@H](O)[C@H]1OC(=O)/C=C/c1ccc(O)c(O)c1 on C33A and write it down.
17.9% [at 11.6 µM] (inactive)

----------
System: Es-2
Test: Primary qHTS to identify gynecologic anti-cancer compounds using libraries of approved drugs and bioactive compounds (AID 1345084); note: % is set by controls: 0 for no effect and ±100 for the full control effect; nearly all actives have a fitted effect of over 55% in size
Conditions: Gynecologic cancer cell panel viability, ATPlite luminescence, 48 h; series mostly up to 57.5 µM
Records with an inconclusive call do not appear. Calls of active or inactive are those of the source. Calls come from the whole dose curve; as a rule, active = well fitted cell-killing curve with a large enough effect; inconclusive = small, poorly fitted or top-dose-only effect, or effect the other way; inactive = flat fitted curve, though single readings scatter.
Readout Name: activity change, negative = cytotoxicity

// below: answered compounds
Compound	Readout Name	Observed Measurement
O=C(O)[C@H]1Cc2ccccc2CN1	activity change, negative = cytotoxicity	-0.653% [at 6.55 µM] (inactive)
C[C@@H]1O[C@@H](O[C@H]2[C@H](O[C@H]3[C@H](O[C@H]4CC[C@@]5(C)C(CC[C@]6(C)C5CC=C5[C@@H]7CC(C)(C)C[C@@H](O)[C@]7(C)CC[C@]56C)[C@@]4(C)CO)O[C@H](C(=O)O)[C@@H](O)[C@@H]3O)O[C@H](CO)[C@H](O)[C@@H]2O)[C@H](O)[C@H](O)[C@H]1O (stereo partly specified)	activity change, negative = cytotoxicity	0.369% [at 11.6 µM] (inactive)
CC1=C2C[C@H]3OC(=O)[C@H](O)[C@@]4(O)[C@@H](C)[C@@H](O)[C@H](O)C([C@@]2(C)[C@H](O)[C@@H](O)C1)[C@@]34C (stereo partly specified)	activity change, negative = cytotoxicity	inactive
COc1cc(/C=C/C(=O)O)ccc1O[C@@H]1O[C@H](CO)[C@@H](O)[C@H](O)[C@H]1O[C@@H]1OC[C@](O)(CO)[C@H]1O	activity change, negative = cytotoxicity	inactive
CC1(CO)CCCC2(C)C3COC(=O)C3=CC(O)C12 (stereo unspecified)	activity change, negative = cytotoxicity	inactive
CCCC/C=C\CCCCCc1cc(=O)c2ccccc2n1C	activity change, negative = cytotoxicity	inactive
C=C1C(=O)O[C@@H]2CC(C)=C([C@@H](C)CCCOC(C)=O)[C@@H](O)[C@H]12	activity change, negative = cytotoxicity	inactive
COc1cc(C(=O)OC[C@@]2(O)CO[C@@H](O[C@H]3[C@H](Oc4ccc(O)cc4)O[C@H](CO)[C@@H](O)[C@@H]3O)[C@@H]2O)cc(OC)c1O	activity change, negative = cytotoxicity	inactive

Please turn your attention to the following entry.
Provide activity change, negative = cytotoxicity value for the following compound: Cc1ccc(Cl)cc1N(CC(=O)Nc1c(F)cccc1F)S(C)(=O)=O
inactive
